Source: the supplement of paper PMC6757056

B1: library; a variant is named by its letters at N, in order (parent)
chain: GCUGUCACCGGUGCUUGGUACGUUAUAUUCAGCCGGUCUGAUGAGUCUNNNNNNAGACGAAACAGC

Variants of: B1
Experimental details: normalized RNA/DNA level without ligand (relative to sTRSVctl = 100) (log10 (% of sTRSVctl)); HEK293T overexpressing SLC46A1; higher = less ribozyme self-cleavage, higher mRNA level
Measurement setup: without (6R,S)-folinic acid; ligand present: no
Attribute measured: normalized RNA/DNA level without ligand (log10)
Give bare numbers.

Below, each entry is followed by its recorded normalized RNA/DNA level without ligand (log10) result.
1) AGCUCG    1.99
2) CUAUGC    2.04
3) GACUCU    2.03
4) AAACCU    2.02
5) GCUUAU    1.94

Please give normalized RNA/DNA level without ligand (log10), item by item, for the list that follows.
1. CGUGCA
2. AGUGGG
3. AAGCCC
4. AACACU
5. ACGCCU
6. GGGGAG

Reply |
1. 2.01
2. 1.92
3. 2.06
4. 2
5. 2.07
6. 1.99
